We begin with a simple list: items and their reported melting point.
observable: melting point

[[record]]
compound = "CSC(SC)=C(C#N)S(=O)(=O)C(C)C"
value_measured = "88 to 91 °C"

[[record]]
compound = "C[C@]12C=C[C@H](O1)[C@H]1C(=O)OC(=O)[C@H]12"
value_measured = "69 to 70 °C"

[[record]]
compound = "Cc1cc(C)c([N+](=O)[O-])c(C)c1Br"
value_measured = "64 to 66 °C"

[[record]]
compound = "CC(=O)c1ccc(O)cc1C"
value_measured = "128 °C"

[[record]]
compound = "CC(=O)OC1CC[C@]2(C)[C@H]3CC[C@]4(C)C(=O)CC[C@H]4[C@@H]3C(=O)C[C@@]2(C)C1 (stereo partly drawn)"
value_measured = "153 to 157 °C"

[[record]]
compound = "Nc1nc(-c2ccc3c(c2)Cc2ccccc2-3)cs1"
value_measured = "261 to 264 °C"

[[record]]
compound = "Cn1cc(S(=O)(=O)Cl)c(C(F)(F)F)n1"
value_measured = "34 to 36 °C"

[[record]]
compound = "C=CCc1cc(C(C)=O)ccc1O"
value_measured = "115 to 118 °C"

